Assay: Single-dose pharmacokinetics after IV bolus administration of EK-ECP
Assay type: in vivo, male Sprague–Dawley rats
Conditions: male, Sprague-Dawley, rat, in vivo, iv, 10 mg/kg, IV bolus 10 mg/kg EK-ECP, mean (CV); read-out: Vss
Experimental endpoint: Vd
Dear colleague, please send the value followed by its unit.

// fetch Vd given entry Oc1cc(O)cc(Oc2c(O)cc(O)c3c2Oc2c(cc(O)c(-c4c(O)cc5c(c4O)Oc4c(Oc6cc(O)cc(O)c6)c(O)cc(O)c4O5)c2O)O3)c1 0.366 L/kg

---

Test: Single-dose pharmacokinetics after IV bolus administration of EK-ECP
Type: in vivo, male Sprague–Dawley rats
Conditions: male, Sprague-Dawley, rat, in vivo; IV bolus 10 mg/kg EK-ECP, plasma, mean (CV)
Experimental endpoint: C0 (ng/mL)
Write the value in ng/mL as a bare number.

// fetch C0 given entry Oc1cc(O)cc(Oc2c(O)cc(O)c3c2Oc2c(cc(O)c(-c4c(O)cc5c(c4O)Oc4c(Oc6cc(O)cc(O)c6)c(O)cc(O)c4O5)c2O)O3)c1 [8,8′-bieckol] 7220

---

Experiment: Single-dose pharmacokinetics and bioavailability after oral gavage administration of EK-ECP
Format: in vivo, male Sprague–Dawley rats
Conditions: male, Sprague-Dawley, rat, in vivo, po, 1000 mg/kg, PO 1000 mg/kg EK-ECP, mean (CV); ln(2)·MRTlast; read-out: Effective T1/2 (converted)
Method: EK-ECP was administered to male Sprague–Dawley rats by either IV bolus (Group 1, 10 mg/kg) or oral gavage (Groups 2, 3 or 4, at 10, 100 or 1000 mg/kg, respectively) administration. Blood collection intervals were pre dose (0), and 0.25, 0.5, 1, 2, 4, 6, 8, 12, 24 and 36 h post dose. Plasma samples were analyzed for concentrations of 8,8′-bieckol, dieckol, and PFF-A; all pre-dose sample results were less than the lower limit of quantitation (LLOQ < 1 ng/mL). […]
Experimental endpoint: half-life (h)
Write the value in h as a bare number.

// fetch half-life given entry Oc1cc(O)cc(Oc2c(O)cc(O)c3c2Oc2c(cc(O)c(-c4c(O)cc5c(c4O)Oc4c(Oc6cc(O)cc(O)c6)c(O)cc(O)c4O5)c2O)O3)c1 4.41

---

Assay: Single-dose pharmacokinetics and bioavailability after oral gavage administration of EK-ECP
Assay type: in vivo, male Sprague–Dawley rats
Settings: male, Sprague-Dawley, rat, plasma, po, 100 mg/kg, PO 100 mg/kg EK-ECP, mean (CV); read-out: AUCTlast
Experimental endpoint: AUC(0-t) (ng·h/mL)
Write the value in ng·h/mL as a bare number.

// fetch AUC(0-t) given entry Oc1cc(O)cc(Oc2c(O)cc(O)c3c2Oc2c(O)cc(Oc4c(O)cc(Oc5c(O)cc(O)c6c5Oc5c(O)cc(O)cc5O6)cc4O)cc2O3)c1 24.3

---

Experiment: Single-dose pharmacokinetics after IV bolus administration of EK-ECP
Assay type: in vivo, male Sprague–Dawley rats
Conditions: male, Sprague-Dawley, rat, plasma, iv, 10 mg/kg, IV bolus 10 mg/kg EK-ECP, mean (CV); read-out: Vss
Experimental endpoint: Vd (L/kg)
Write the value in L/kg as a bare number.

// fetch Vd given entry Oc1cc(O)cc(Oc2c(O)cc(O)c3c2Oc2c(O)cc(Oc4c(O)cc(Oc5c(O)cc(O)c6c5Oc5c(O)cc(O)cc5O6)cc4O)cc2O3)c1 [dieckol] 0.57

Below: the item to evaluate.
// fetch Vd given entry Oc1cc(O)cc(Oc2c(O)cc(O)c3c2Oc2c(O)cc4oc5c(Oc6cc(O)cc(O)c6)c(O)cc(O)c5c4c2O3)c1 [PFF-A, phlorofucofuroeckol-A] 77.6
